Hey, just so you know, these numbers are from the supplement of paper PMC6897291.

Test system: RIVA
protocol.text: growth inhibition by drug alone (1 - RLU/untreated control) (fraction); higher = stronger inhibition
measurement.setup: 100 nM; time (day): 6; 177Lu-lilotomab satetraxetan 0 ug/ml
Where a name gives a salt, the structure may show the parent alone.
true (1) means recorded growth inhibition by drug alone is -0.3 or above; false (0) means it is below -0.3.

compound	cat
N#Cc1ccc(NC(=O)Nc2ccccc2Br)c2n[nH]nc12	false (0)
CC(=O)O[C@H]1C(=O)[C@@]2(C)[C@H]([C@H](OC(=O)c3ccccc3)[C@]3(O)C[C@H](OC(=O)[C@H](O)[C@@H](NC(=O)c4ccccc4)c4ccccc4)C(C)=C1C3(C)C)[C@]1(OC(C)=O)CO[C@@H]1C[C@@H]2O	true (1)
COc1cc2ncnc(Nc3cccc(Br)c3)c2cc1OC	true (1)
Nc1ccccc1NC(=O)c1ccc(CNC(=O)OCc2cccnc2)cc1	true (1)
CC[C@]1(O)C[C@@H]2CN(CCc3c([nH]c4ccccc34)[C@@](C(=O)OC)(c3cc4c(cc3OC)N(C)[C@H]3[C@@](O)(C(=O)OC)[C@H](OC(C)=O)[C@]5(CC)C=CCN6CC[C@]43[C@@H]65)C2)C1	true (1)
CCc1cc(Nc2nccc(-c3c(-c4ccc(OC)c(C(=O)Nc5c(F)cccc5F)c4)nc4ccccn34)n2)c(OC)cc1N1CCC(N2CCN(S(C)(=O)=O)CC2)CC1	true (1)
O=C(c1ccc(OCCN2CCCCC2)cc1)c1c(-c2ccc(O)cc2)sc2cc(O)ccc12 [Evista (Raloxifene Hydrochloride)]	false (0)
Cc1ccc(NC(=O)c2ccc(CN3CCN(C)CC3)cc2)cc1Nc1nccc(-c2cccnc2)n1	false (0)
COc1ccc(/C=C\c2cc(OC)c(OC)c(OC)c2)cc1O	true (1)
CN(C)C/C=C/C(=O)Nc1cc2c(Nc3ccc(F)c(Cl)c3)ncnc2cc1O[C@H]1CCOC1	true (1)
CC(C)C(=O)Nc1ccc([N+](=O)[O-])c(C(F)(F)F)c1 [Flutamide (Eulexin)]	true (1)
COc1cc2ncnc(Nc3ccc(Oc4ccccc4)cc3)c2cc1OC	true (1)
CC(=O)c1c(C)c2cnc(Nc3ccc(N4CCNCC4)cn3)nc2n(C2CCCC2)c1=O	true (1)
CS(=O)(=O)N1CCc2c(-c3cnc(N)nc3)nc(N3CCOCC3)nc21	true (1)
C[C@]12CC[C@@H]3c4ccc(O)cc4CC[C@H]3[C@@H]1CCC2=O	false (0)
c1ccc2c(-c3cnn4cc(-c5ccc(N6CCNCC6)cc5)cnc34)ccnc2c1	true (1)

---

System: RIVA
protocol.text: growth inhibition by drug alone (1 - RLU/untreated control) (fraction); higher = stronger inhibition
measurement.setup: 100 nM; time (day): 3; 177Lu-lilotomab satetraxetan 0 ug/ml
Structures can show the parent of a compound that is named as a salt.
Consider the following molecules and their measured growth inhibition by drug alone readings.
measured.metric: growth inhibition by drug alone

> print(dat)
                                   molecule                  measured.metric  obs.value
1  Cn1cnc2c(F)c(Nc3ccc(Br)cc3Cl)c(C(=O)NOCCO)cc21 [AZD6244 (Selumetinib)]  growth inhibition by drug alone     -0.313
2  CCc1c2c(nc3ccc(OC(=O)N4CCC(N5CCCCC5)CC4)cc13)-c1cc3c(c(=O)n1C2)COC(=O)[C@]3(O)CC [Irinotecan HCl Trihydrate (Campto)]  growth inhibition by drug alone     -0.259
3  O=C(NCCS(=O)(=O)c1ccc(C(F)(F)F)cn1)c1ccc(Cl)cc1  growth inhibition by drug alone     -0.409
4             Nc1nc(N)c(N=O)c(OCC2CCCCC2)n1  growth inhibition by drug alone     -0.331
